Reference source for all entries: the supplement of paper PMC11061612

Tested on: NCI-H1092 (Small Cell Lung Carcinoma);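 further: after 72 h of two-drug dosing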
Experiment: Bliss excess, mean over the matrix (fraction); higher = more synergy
property measured: Bliss excess

Lookup: Bliss excess / NCI-H1092 (Small Cell Lung Carcinoma) / CC1(C)CCC(CN2CCN(c3ccc(C(=O)NS(=O)(=O)c4ccc(NCC5CCOCC5)c([N+](=O)[O-])c4)c(Oc4cnc5[nH]ccc5c4)c3)CC2)=C(c2ccc(Cl)cc2)C1 [Venetoclax] + Cn1cnc2c(F)c(Nc3ccc(Br)cc3Cl)c(C(=O)NOCCO)cc21 [Selumetinib] (first compound max 1 µM, 7x7, partner max 3 µM)
-0.0691

Item: CC(=O)c1c(C)c2cnc(Nc3ccc(N4CCNCC4)cn3)nc2n(C2CCCC2)c1=O [Palbociclib] + Cc1c2c(nn1C)CSCc1cc(n(C)n1)CSc1cc(c3ccccc3c1)OCCCc1c(C(=O)O)n(C)c3c-2c(Cl)ccc13 [AZD5991] (first compound max 10 µM, 7x7, partner max 1 µM) Test system: NCI-H1092 (Small Cell Lung Carcinoma) Read-out: Bliss excess Value: ?;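 further: after 72 h of two-drug dosing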
-0.0646

Enter reported Bliss excess observed with NCI-H1092 (Small Cell Lung Carcinoma) for CC1(C)CCC(CN2CCN(c3ccc(C(=O)NS(=O)(=O)c4ccc(NCC5CCOCC5)c([N+](=O)[O-])c4)c(Oc4cnc5[nH]ccc5c4)c3)CC2)=C(c2ccc(Cl)cc2)C1 [Venetoclax] + CCN(CCO)CCCOc1ccc2c(Nc3cc(CC(=O)Nc4cccc(F)c4)[nH]n3)ncnc2c1 [AZD2811] (first compound max 1 µM, 7x7, partner max 1 µM)
0.075
